Catalogue of compounds with associated GI50
system: SK-MEL-2; experiment: NCI tumour cell line growth inhibition, 48 h
Calls of active or inactive are those of the source. Rule as the data show it: active = GI50 up to about 1.1 µM and inactive = higher.

CCCCCCCCCCCCCCCCOP(=O)([O-])OCC[N+](C)(C)C [MILTEFOSINE]    21 µM (inactive)
O=[N+]([O-])c1cc(I)cc(/C=N/NS(=O)(=O)c2ccc(F)cc2)c1O    18 µM (inactive)
Nc1ccc2c(c1)C1=NNC(=O)CC1C2 (configuration not stated)    > 100 µM (inactive)
O=S(=O)(c1ccc(Br)cc1)N1CCN(S(=O)(=O)c2ccc(Br)cc2)CC1    > 100 µM (inactive)
COc1c(-c2ccc(F)cc2)oc2cc(O)cc(O)c2c1=O    23.3 µM (inactive)
CC1=CC(O)CC(C)(C)C1/C=C/C(C)=C/C=C/C(C)=C/C=C/C=C(C)/C=C/C=C(C)/C=C/C1=C(C)CC(O)CC1(C)C (configuration not stated)    25 µM (inactive)

// switching to the query compound
Record Clc1ccc(CNc2nc3ccccc3nc2-c2cccs2)c(Cl)c1 . Reported GI50: > 100 µM (inactive)

Data origin, for the record: ChEMBL document CHEMBL1201862
